Cited source: paper PMC13090976

Molecular target: T1, human CHIP-TPR (residues 21-154) (human, UniProt Q9UNE7 21-154)
T1 construct: also called wild-type CHIP-TPR
T1 sequence (looked up): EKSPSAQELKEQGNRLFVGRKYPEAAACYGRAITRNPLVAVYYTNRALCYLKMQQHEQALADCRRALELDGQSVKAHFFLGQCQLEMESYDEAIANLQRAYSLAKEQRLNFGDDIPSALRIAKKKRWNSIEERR
Assay: BLI; BLItz, biotinylated peptide loaded on streptavidin sensors, TPR construct at 1 to 25 uM in solution; 20 mM HEPES, 150 mM NaCl, 5 mM beta-mercaptoethanol, pH 7.2; Kd = koff/kon from individual fits
Details: both partners purified
Square brackets hold non-standard residues; d marks the D form. Ends that are not written are not given here. * marks the point of attachment. Biotin = O=C1N[C@H]2[C@H](CS[C@H]2CCCCC(=O)*)N1; pT = C[C@@H](OP(=O)(O)O)[C@H](N)C(=O)O
Endpoint Name: pKd
One number for each entry, as −log10 of the molar value.

Binder | pKd
Biotin-GSGSGP[pT]IEEVD (C-terminal tail of human HSP70 (HSPA1A), Thr636 phosphorylated; also called biotin-pEEVD; biotinylated pEEVD peptide; source: synthetic peptide (Lifetein/Genscript)) [biotin-GSGSGP(pT)IEEVD] | 5.28

Ask | Tell me the measured pKd of Biotin-GSGSGPTIEEVD (C-terminal tail of human HSP70 (HSPA1A); also called biotin-EEVD; biotinylated EEVD peptide; source: synthetic peptide (Lifetein/Genscript)) [biotin-GSGSGPTIEEVD] , please.
Reply | 6.23
